The reported numbers originate from the supplement of paper PMC10724198.

Tested on: Saccharomyces cerevisiae
Assay: protein stability index of tFT-peptide fusion (C-terminal peptide) (PSI (0-1 scale)); higher = more stable (slower turnover)
Conditions: genetic background: wild type; temperature: 30 C
Provide the recorded protein stability index for the entries that follow.
Please respond with just the number, no unit label.

I would be grateful if you could share the reported protein stability index for "LGTVPLLPPRSP" .
0.713

Similarly, "PPSRNPPDLDTQ" ?
0.682

Similarly, "RRWCATLGRDRV" ?
0.703

Similarly, "PLLSSPAHPLPP" ?
0.687

Similarly, "HNIRIDTSEKNR" ?
0.6

----------
Provide the recorded protein stability index for the entries that follow.
Tested on: Saccharomyces cerevisiae
Experiment: protein stability index of tFT-peptide fusion (C-terminal peptide) (PSI (0-1 scale)); higher = more stable (slower turnover)
Settings: genetic background: das1 deletion; temperature: 30 C

I would be grateful if you could share the reported protein stability index for TIPAAKRTKPSA [LYS20 C-terminal 12 aa] .
0.698

Similarly, AYETLTGSKWSH [ADE1 C-terminal 12 aa] ?
0.704

Similarly, CKQNSNCEYLYM [YOR365C C-terminal 12 aa] ?
0.682

Similarly, LSFADYRKKLLK [SET3 C-terminal 12 aa] ?
0.709
